So I've got a bunch of compounds here, and I need their Ki values.
# target under test: Histamine H3 receptor (Homo sapiens, UniProt Q9Y5N1)
# Sequence (Q9Y5N1 whole entry): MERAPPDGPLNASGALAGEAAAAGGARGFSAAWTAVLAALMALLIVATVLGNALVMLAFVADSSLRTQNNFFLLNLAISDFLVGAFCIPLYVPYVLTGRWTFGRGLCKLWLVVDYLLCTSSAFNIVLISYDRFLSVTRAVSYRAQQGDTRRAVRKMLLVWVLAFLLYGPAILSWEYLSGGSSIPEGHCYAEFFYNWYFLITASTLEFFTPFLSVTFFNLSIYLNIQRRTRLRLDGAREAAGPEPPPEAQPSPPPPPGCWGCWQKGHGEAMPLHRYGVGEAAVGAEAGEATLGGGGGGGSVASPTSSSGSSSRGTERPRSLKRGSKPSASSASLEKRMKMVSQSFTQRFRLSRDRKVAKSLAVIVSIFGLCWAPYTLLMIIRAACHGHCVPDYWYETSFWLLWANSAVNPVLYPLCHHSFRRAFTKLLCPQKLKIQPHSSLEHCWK
Give bare numbers, in nM.

A selection of reference data follows.
[[record]]
substance_smiles = "c1cnc([C@@H]2CN3CCC[C@@H]3c3cc(OCCCN4CCOCC4)ccc32)cn1"
measure_name = "Ki"
measurement_unit = "nM"
reading = 4

[[record]]
substance_smiles = "c1cc([C@@H]2CN3CCC[C@@H]3c3cc(OCCCN4CCOCC4)ccc32)[nH]n1"
measure_name = "Ki"
measurement_unit = "nM"
reading = 4

[[record]]
substance_smiles = "c1cc([C@@H]2CN3CCC[C@@H]3c3cc(OCCCN4CCCCC4)ccc32)ccn1"
measure_name = "Ki"
measurement_unit = "nM"
reading = 1


For the next question, use this compound.
Query: Hello, please tell me recorded Ki for this one: `c1ccn2c([C@@H]3CN4CCC[C@@H]4c4cc(OCCCN5CCOCC5)ccc43)cnc2c1`
Result: 2

----------
# method summary: Ratio of log AUC in brain to plasma in mouse at 10 mg/kg, ip
# Format: ADME, organism-based
# Design: dose 10 mg/kg, route intraperitoneal
# measurement setup: brain and plasma, read-out: BPR
measure name: Kp
One number for each entry.

Query: Hello, please tell me recorded Kp for this one: `c1cncc([C@@H]2CN3CCC[C@@H]3c3cc(OCCCN4CCCCC4)ccc32)c1`
Result: 0.75

----------
# method summary: Drug level in mouse brain at 10 mg/kg, ip after 2 hrs
# Type: ADME, organism-based
# Parameters: dose 10 mg/kg, route intraperitoneal
# measurement setup: read-out: Drug uptake
measure name: concentration at 2 h (nM)
Answers are plain numbers, in nM.

Query: Hello, please tell me recorded concentration at 2 h for this one: `c1cncc([C@@H]2CN3CCC[C@@H]3c3cc(OCCCN4CCCCC4)ccc32)c1`
Result: 920

----------
# method summary: Plasma concentration in mouse at 10 mg/kg, ip after 15 mins
# Type: ADME, organism-based
# Parameters: dose 10 mg/kg, route intraperitoneal
measure name: concentration at 0.25 h (nM)
One number for each entry, in nM.

Query: Hello, please tell me recorded concentration at 0.25 h for this one: `c1cncc([C@@H]2CN3CCC[C@@H]3c3cc(OCCCN4CCCCC4)ccc32)c1`
Result: 1430

----------
# target under test: Histamine H3 receptor (Homo sapiens, UniProt Q9Y5N1)
# method summary: Antagonist activity at human histamine H3 receptor
# Type: functional
# measurement setup: read-out: pA2 (converted)
So I've got a bunch of compounds here, and I need their Kb values.
Give bare numbers, in nM.

[[record]]
substance_smiles = "c1ccc([C@@H]2CN3CCC[C@@H]3c3cc(OCCCN4CCOCC4)ccc32)nc1"
measurement_unit = "nM"
reading = 3.16

[[record]]
substance_smiles = "c1cn(-c2ccc([C@@H]3CN4CCC[C@@H]4c4cc(OCCCN5CCOCC5)ccc43)cc2)cn1"
measurement_unit = "nM"
reading = 3.16

[[record]]
substance_smiles = "c1cncc([C@@H]2CN3CCC[C@@H]3c3cc(OCCCN4CCOCC4)ccc32)c1"
measurement_unit = "nM"
reading = 3.16

[[record]]
substance_smiles = "c1cc([C@@H]2CN3CCC[C@@H]3c3cc(OCCCN4CCOCC4)ccc32)[nH]n1"
measurement_unit = "nM"
reading = 3.16

[[record]]
substance_smiles = "c1csc([C@@H]2CN3CCC[C@@H]3c3cc(OCCCN4CCOCC4)ccc32)n1"
measurement_unit = "nM"
reading = 3.16


Go through the items and report each one's Kb.
1. c1cnn(-c2ccc([C@@H]3CN4CCC[C@@H]4c4cc(OCCCN5CCOCC5)ccc43)cc2)c1
2. c1cc([C@@H]2CN3CCC[C@@H]3c3cc(OCCCN4CCOCC4)ccc32)cs1
3. c1cc([C@@H]2CN3CCC[C@@H]3c3cc(OCCCN4CCCCC4)ccc32)ccn1
4. c1ccc([C@@H]2CN3CCC[C@@H]3c3cc(OCCCN4CCCCC4)ccc32)nc1

Result:
3.16
3.16
3.16
3.16

----------
# method summary: Mean residence time in mouse brain at 10 mg/kg, ip
# Format: ADME, organism-based
# Design: dose 10 mg/kg, route intraperitoneal
measure name: MRT (h)
Numbers only, in h.

Query: Hello, please tell me recorded MRT for this one: `c1cncc([C@@H]2CN3CCC[C@@H]3c3cc(OCCCN4CCCCC4)ccc32)c1`
Result: 31.3
